Reference source: patent US5541181A

Tested target: 5-lipoxygenase (5-LPO) (Rattus norvegicus)
Construct: produced in a cell-free extract of rat basophilic leukemia cells (RBL-1 cells, ATCC CRL 1378); endogenous in cells; host or cells: RBL-1 cells (rat basophilic leukemia), ATCC CRL 1378; cell-free extract
Sequence (P12527 1-673): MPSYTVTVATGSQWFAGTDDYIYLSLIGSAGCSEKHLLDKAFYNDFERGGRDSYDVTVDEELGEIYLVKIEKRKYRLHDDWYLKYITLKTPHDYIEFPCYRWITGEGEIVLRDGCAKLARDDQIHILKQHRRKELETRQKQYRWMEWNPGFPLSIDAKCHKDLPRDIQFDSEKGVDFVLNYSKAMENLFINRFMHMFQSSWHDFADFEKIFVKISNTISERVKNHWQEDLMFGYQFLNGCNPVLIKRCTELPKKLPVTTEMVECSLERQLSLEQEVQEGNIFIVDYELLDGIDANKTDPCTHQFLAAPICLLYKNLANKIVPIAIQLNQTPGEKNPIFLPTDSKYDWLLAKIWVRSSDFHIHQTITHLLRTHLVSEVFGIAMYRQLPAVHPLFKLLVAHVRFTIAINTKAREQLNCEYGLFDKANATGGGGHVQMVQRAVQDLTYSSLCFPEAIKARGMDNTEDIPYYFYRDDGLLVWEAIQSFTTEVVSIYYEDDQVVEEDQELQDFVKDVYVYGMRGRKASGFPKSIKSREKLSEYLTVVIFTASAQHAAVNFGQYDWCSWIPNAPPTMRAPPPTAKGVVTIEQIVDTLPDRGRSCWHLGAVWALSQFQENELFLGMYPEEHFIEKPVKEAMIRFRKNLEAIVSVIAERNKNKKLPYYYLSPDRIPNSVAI
Method summary: 5-Lipoxygenase (5-LPO) inhibitory activity: 5-HETE produced in a cell-free extract of rat basophilic leukemia (RBL-1) cells
Assay type: biochemical
Experimental parameters: rat 5-LPO; read-out: IC50 (5-LPO inhibitory activity)
Outcome measure: IC50 (µM)
Record the value in µM, omitting the unit from your answer.

Problem: Which measured IC50 value corresponds to CC(C)=CCC/C(C)=C/CC/C(C)=C/CN1c2cc(O)cc(O)c2NC(=O)c2cccc(O)c21 [BU-4664L] ?
Solution: 1.7

====

Tested target: 5-lipoxygenase (5-LPO) (Rattus norvegicus, UniProt P12527)
Construct: produced in a cell-free extract of rat basophilic leukemia cells (RBL-1 cells, ATCC CRL 1378); endogenous in cells; host or cells: RBL-1 cells (rat basophilic leukemia), ATCC CRL 1378; cell-free extract
Method summary: 5-Lipoxygenase (5-LPO) inhibitory activity: 5-HETE produced in a cell-free extract of rat basophilic leukemia (RBL-1) cells
Format: biochemical
Experimental parameters: Table 8, rat 5-LPO; read-out: IC50 (5-Lipoxygenase Inhibitory Activity)
Outcome measure: IC50

Problem: Quick one: IC50 of CC(=O)Oc1cc(OC(C)=O)c2c(c1)N(C/C=C(\C)CC/C=C(\C)CCC=C(C)C)c1c(OC(C)=O)cccc1C(=O)N2 [Triacetyl BU-4664L] ?
Solution: > 34 µM

Problem: What would you report for COc1cc(OC)c2c(c1)N(C/C=C(\C)CC/C=C(\C)CCC=C(C)C)c1c(OC)cccc1C(=O)N2 [Trimethyl BU-4664L] ?
Solution: > 39.6 µM
